- System: DU-145 prostate
- assay_info: NCI-60 one-dose screen, 48 h (100 = growth as untreated, 0 = no growth, -100 = all killed)
- experimental_context: 10 µM unless noted
This is part of a sample that, as a whole, favours compounds with a hit. Of some 83,000 tested, about 20% had one in any assay.
assay_readout: growth (%)

> print(dat)
                                    molecule  assay.readout  value.reported
 1  Cc1ccc(/C=C/C(=O)Nc2ncc(Cc3ccc(F)cc3)s2)o1         growth            55.6
 2  Cc1ccc(NC(=O)Cn2c(Br)nc3c2c(=O)n(C)c(=O)n3C)cc1         growth            44.1
 3    CCN(CC)Cc1cc(Nc2ccnc3cc(Cl)ccc23)ccc1O         growth            97.4
 4  O=C(O)c1ccc(-c2ccc(/C=N/Nc3nc(Nc4ccccc4)nc(N4CCCCC4)n3)o2)cc1         growth            66.7
 5  COc1ccc(C#Cc2ccc(=O)oc2-c2cc(OC)c(OC)c(OC)c2)cc1O         growth            58.5
 6  C=C1C(=O)O[C@H]2[C@H]1CC/C(CNC(=O)c1c[nH]c3ccc(F)cc13)=C\CC[C@@]1(C)O[C@@H]21         growth           -58.5
 7  [2H]C([2H])([2H])Oc1ccc(F)cc1/C=C/C(=O)/C=C(/C=C/c1cc(F)ccc1OC([2H])([2H])[2H])OB(F)F         growth            85.1
 8  C=C1C(=O)O[C@H]2[C@H]1CC/C(Cn1cc(CCC)nn1)=C\CC[C@@]1(C)O[C@@H]21         growth            28.7
 9  CCOC(=O)CC1CSC(Nc2ccccc2)=N1 (stereo not drawn)         growth             103
10          C[n+]1ccc(CCc2c[nH]c3ccccc23)cc1         growth             111
11  Cc1[nH]c(C2CC(c3ccc(C(F)(F)F)c(F)c3)=NN2c2ccccc2)c(C)c1C(=O)NCC(F)(F)F (stereo not drawn)         growth            94.7
12  O=C(Nc1cnc(Nc2ccc(N3CCOCC3)nc2)nc1Oc1ccc(C(F)(F)F)cc1)c1ccncc1         growth              66
13  CCN1CCN(CC(=O)Nc2nc3ccc(NCc4ccc(F)cc4)cc3s2)CC1         growth            95.1
14                      COC(=O)c1cc(Br)ccc1O         growth             110
15               Oc1ccc(/C=C/c2ccc(O)cc2)cc1         growth            56.9
16  CCc1n(Cc2ccc3ccccc3n2)cc[n+]1Cc1ccc2ccccc2n1         growth            51.7
17           O=C1c2ccccc2C(=O)C1c1ccc(Br)cc1         growth             118
18             C=CCC(CCCC)(C(=O)OCC)C(=O)OCC         growth             121
19          Cc1cccc[n+]1C1c2ccccc2-c2ccccc21         growth             110
20  Cc1ccc(S(=O)(=O)OCCCOS(=O)(=O)c2ccc(C)cc2)cc1         growth              95
21  COc1ccc(C2=CN3CC=CC3CC2=O)cc1 (stereo not drawn)         growth            98.9
22  CCCC(CC)(C(=O)Nc1ccc2nc(C)cc(N)c2c1)C(=O)Nc1ccc2nc(C)cc(N)c2c1         growth             111
23  C=C1C(=O)O[C@H]2[C@H]1CC/C(COC(=O)c1cc3cc(Cl)ccc3[nH]1)=C\CC[C@@]1(C)O[C@@H]21         growth           -96.1
24  O=C1c2ccccc2C(=O)c2c1c(C(=O)NCc1ccccc1)c1ccccn21         growth             104
25  COC(=O)c1c2c(c(C)[n+]([O-])c1C)C(=O)C(NCc1ccc(OC)cc1)=CC2=O         growth            43.9
26  COc1ccc(C(O)c2cc3c(N)c(C(=O)Nc4cccc(Cl)c4C)sc3nc2C)cc1 (stereo not drawn)         growth            3.08
27  N#Cc1cccc(C2C3=C(COC3=O)N(CCO)c3cc4c(cc32)CCC4)c1 (stereo not drawn)         growth            3.87
28  Cc1ccc(C(=O)Nc2cccc(C#Cc3cccc4[nH]nc(N)c34)c2)cc1C(F)(F)F         growth            78.4
29  O=C(CSc1nnc(-c2cc(-c3ccccc3)nc3ccccc23)n1-c1ccccc1)Nc1ccc(C(=O)/C=C/c2ccc(Cl)cc2)cc1         growth            94.6
30  O=c1cc(-c2ccccc2)[nH]c2ncc(-c3ccc(F)cc3)n12         growth            94.6
31  COC(=O)CC[C@@H]1O[C@@H](c2ccc(F)cc2)[C@@H](O)[C@H]1O         growth             112
32                 Cc1cccc(N2CCC(=O)NC2=S)c1         growth             116
33  Cc1nn(-c2cc(NC3CCC(O)CC3)c3c(=O)[nH]c(CCC(F)(F)F)cc3c2)c2c1C(=O)CC(C)(C)C2 (stereo not drawn)         growth              27
